B1: ALKBH7 (parent)
chain: SVICRSLPEGMGPGESGQPPPAC

# Variants of: B1
# ASSAY_NAME: protein stability index of a GFP-peptide fusion (GPS, HEK-293T) (PSI 1-6); higher = more stable;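 note: lentivirally expressed fusions sorted by FACS into six bins by GFP to DsRed ratio, PSI derived from sequencing read proportions per bin multiplied by bin number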
# EXPERIMENTAL_CONTEXT: c terminus: native
REPORTED_PROPERTY: protein stability index
No unit in the answer, only the number.

Example entries and their recorded answers appear below.
>>> df
   sequence_variant        reported_property  measured_value
0              C23Y  protein stability index            4.45
1              G17N  protein stability index            1.95
2               S6T  protein stability index            2.07
3              A22F  protein stability index            5.01
4              Q18H  protein stability index            2.38
5               S6C  protein stability index            2.03

Q. # get_value(readout='protein stability index', item= R5C )
A. 2.28

Q. // repeat for P8I and report
A. 1.65

Q. // repeat for E9L and report
A. 1.23

Q. // repeat for V2H and report
A. 1.78

Q. // repeat for A22R and report
A. 5

Q. // repeat for A22H and report
A. 4.75

Q. // repeat for S16H and report
A. 2.07

Q. // repeat for S6Y and report
A. 2.25

Q. // repeat for E15Y and report
A. 1.66

# credit: the supplement of paper PMC10567573
